target-under-test: T1, human CD47 (hCD47) expressed on cells (human, UniProt Q08722 19-323)
T1 construct: Transfected CHO cells or endogenous CD47 of human cells; also called CHO-hCD47; CD47 on Raji cells
experiment-description: flow cytometry, Raji cells, competition with hSIRPα
Listed here: items and their measured IC50.
# unit: µg/mL | format: bare number

binder: h20-VH1-VL3 (candidate 20.3) (antibody, human IgG4 S228P, kappa, V domains shown, hIgG4-S228P/kappa; also called h20-H1-L3) VH: QVQLLESGAVLARPGTSVKISCKASGYSFTDYYINWVKQRPGQGLEWIGRIYPGIGNTYYNKKFKGRAKLTAATSASIAYLEFSSLTNEDSAVYYCARGHYGRGMDYWGQGTLVTVSS VL: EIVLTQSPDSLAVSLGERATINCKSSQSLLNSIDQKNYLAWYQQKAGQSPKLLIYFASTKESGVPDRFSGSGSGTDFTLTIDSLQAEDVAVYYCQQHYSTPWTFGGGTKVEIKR
IC50 [µg/mL]: 0.228
--
binder: h20-VH5-VL4 (candidate 20.24) (antibody, human IgG4 S228P, kappa, V domains shown, hIgG4-S228P/kappa; also called h20-H5-L4) VH: QVQLVQSGAEVKKPGASVKVSCKASGYSFTDYYINWVRQAPGQGLEWMGRIYPGIGNTYYNKKFKGRVTMTRYTSISTAYMELSRLRSDDTAVYFCARGHYGRGMDYWGQGTTVTVSS VL: DIVMTQSPDSLAVSLGERATINCKSSQSLLNSIDQKNYLAWYQQKPGQPPKLLIYFASTKESGVPDRFSGSGSGTDFTLTISSLQAEDVAVYFCQQHYSTPWTFGGGAKVEIKR
IC50 [µg/mL]: 0.133

[Q] Item h20-VH5-VL3 (candidate 20.23) (antibody, human IgG4 S228P, kappa, V domains shown, hIgG4-S228P/kappa; also called h20-H5-L3) VH: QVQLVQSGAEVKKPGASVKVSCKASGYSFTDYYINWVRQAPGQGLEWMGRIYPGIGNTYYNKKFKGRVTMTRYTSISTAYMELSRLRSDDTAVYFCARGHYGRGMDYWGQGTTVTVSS VL: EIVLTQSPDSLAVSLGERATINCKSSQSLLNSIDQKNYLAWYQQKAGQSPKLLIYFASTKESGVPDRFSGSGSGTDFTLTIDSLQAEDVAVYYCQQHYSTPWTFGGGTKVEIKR has what recorded IC50?
[A] 0.169
